Data provenance: ChEMBL document CHEMBL5058577

Tested on: U2OS
Experiment: Multiplex assay against U2OS
Format: toxicity, cell-based
Condition: human, 12 h, 10 µM, compound concentration 10 uM, replicate 1
Recorded Metric: Population Hoechst High Intensity Objects (%)
Supply the numeric figure in %, leaving out any unit text.

Solved cases below.
Entry Smiles	Measurement Unit	Value Observed
COc1cc(Nc2ncc3c(n2)-c2ccc(Cl)cc2C(c2c(F)cccc2OC)=NC3)ccc1C(=O)O	%	3
O=C(Nc1cc(-c2ccccc2)nn1-c1ccccc1F)c1ccc([N+](=O)[O-])cc1	%	3

Lab note: next molecule to report on.
The reported Population Hoechst High Intensity Objects (%) of the molecule C=CCN1C[C@H](C(=O)N(CCCN(C)C)C(=O)NCC)C[C@@H]2c3cccc4[nH]cc(c34)C[C@H]21 was 3
